Attribution: patent US6579881B2

Structures can show the parent of a compound that is named as a salt.
Reported melting point values follow for various compounds

Completed entries (count: 3):
{"compound": "CNC(=O)Cc1ccc2ccn(C3CCN(CCc4ccc(F)cc4)CC3)c2c1", "reading": "149.4 to 150.5 °C"}
{"compound": "COc1ccc2c(c1OC)N(C1CCN(CCc3ccc(F)cc3)CC1)CCC2 (as salt: hydrochloride)", "reading": "213 to 215 °C"}
{"compound": "O=C(CCCl)NCc1ccc2ccn(C3CCN(CCc4ccc(F)cc4)CC3)c2c1", "reading": "121 to 122 °C"}

Next:
// query Identify melting point associated with the compound COc1ccc2c(c1)N(C1CCN(CCc3ccc(F)cc3)CC1)C(C)(C)C2 (as salt: oxalate)
// result 228 °C (dec.)

====

- System: Straub's tail reaction (hyper-muscle tone in the tail)
- experiment_description: Morphine induced Straub's tail phenomenon in mice
- Format: in vivo
- condition_details: Mus musculus, ip; male ddY mice, i.p., 15 min before morphine hydrochloride 12.5 mg/kg s.c.; statistically significant (p<0.05); read-out: minimal effective dose i.p.
measurement_kind: minimal effective dose (mg/kg)
Only the number, expressed in mg/kg, is required.

{"line_notation": "CC(=O)NCc1ccc(CCN2CCC(N3CCc4ccccc43)CC2)cc1", "measurement_units": "mg/kg", "minimal effective dose": 1}
{"line_notation": "CC(=O)NCc1ccc2c(c1)N(C1CCN(CCc3ccc(F)cc3)CC1)CC2", "measurement_units": "mg/kg", "minimal effective dose": 0.3}

Could you now consider this next compound?
// query State its minimal effective dose for this compound: `COc1ccc2c(c1)N(C1CCN(CCc3ccc(F)cc3)CC1)CC2`
// result 10

====

# key: entry, value: melting point
Where a name gives a salt, the structure may show the parent alone.

See these solved cases before continuing.
{"compound": "OCCOc1ccc2c(c1)CCCC2C1CCN(CCc2ccc(F)cc2)CC1 (centres unmarked) (as salt: hydrochloride) [Example 278]", "reading": "213 to 215 °C (dec.)"}
{"compound": "O=C(Cc1ccc2ccn(C3CCN(CCc4ccc(F)cc4)CC3)c2c1)NCCO [Example 300]", "reading": "140 to 141.2 °C"}

// query Please give the documented melting point of O=[N+]([O-])c1ccc(CCN2CCC(N3CCc4ccccc43)CC2)cc1 [Example 29]
// result 95 to 97 °C

// query For the compound CS(=O)(=O)c1ccc2ccn(C3CCN(CCc4ccc(F)cc4)CC3)c2c1 [Example 331] , give its measured melting point value.
// result 133 to 135 °C

// query State its melting point: O=C(CO)NCc1ccc2ccn(C3CCN(CCc4ccc(F)cc4)CC3)c2c1 [Example 364]
// result 76 to 78 °C

// query Dear colleague, please send me the reported melting point for O=C1CNC(=O)N1Cc1ccc2ccn(C3CCN(CCc4ccc(F)cc4)CC3)c2c1 [Example 353] when you can.
// result 156 to 157 °C

// query Consider the compound CC(C)S(=O)(=O)NCc1ccc2ccn(C3CCN(CCc4ccc(F)cc4)CC3)c2c1 [Example 323] . State its measured melting point.
// result 90 to 92 °C

// query Please give the documented melting point of O=C(CCN1CCCCC1)NCc1ccc2ccn(C3CCN(CCc4ccc(F)cc4)CC3)c2c1 (as salt: oxalate) [Example 379]
// result 108 to 109 °C

====

- system_under_test: serotonin 2 receptor (Rattus norvegicus)
- Sequence (P14842 whole entry): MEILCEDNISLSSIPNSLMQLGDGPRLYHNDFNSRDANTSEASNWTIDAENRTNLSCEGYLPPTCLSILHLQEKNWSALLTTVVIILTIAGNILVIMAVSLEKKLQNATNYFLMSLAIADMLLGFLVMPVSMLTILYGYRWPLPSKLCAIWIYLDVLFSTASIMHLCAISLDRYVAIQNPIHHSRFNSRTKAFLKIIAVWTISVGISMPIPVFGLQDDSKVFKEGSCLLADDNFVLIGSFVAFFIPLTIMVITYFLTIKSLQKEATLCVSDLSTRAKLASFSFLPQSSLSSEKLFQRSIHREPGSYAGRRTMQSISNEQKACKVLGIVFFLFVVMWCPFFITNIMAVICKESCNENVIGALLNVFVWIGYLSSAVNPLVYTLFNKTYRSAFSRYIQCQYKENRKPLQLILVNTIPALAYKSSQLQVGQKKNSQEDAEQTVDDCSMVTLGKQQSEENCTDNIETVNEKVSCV
- experiment_description: Binding test on [3H] ketanserin (serotonin 2 receptor)
Counter-ions that a name gives are not always drawn.
measurement_kind: pKi
The meaning of pKi here: minus log10 of the concentration in molar units.

// query Provide measured pKi value, entry: CC(=O)N1CCC(CNC(=O)Cc2ccc3ccn(C4CCN(CCc5ccc(F)cc5)CC4)c3c2)CC1 [Example 343, Oxalate]
// result 8.79

====

- system_under_test: serotonin 1A receptor (Rattus norvegicus, UniProt P19327)
- Sequence (P19327 1-422): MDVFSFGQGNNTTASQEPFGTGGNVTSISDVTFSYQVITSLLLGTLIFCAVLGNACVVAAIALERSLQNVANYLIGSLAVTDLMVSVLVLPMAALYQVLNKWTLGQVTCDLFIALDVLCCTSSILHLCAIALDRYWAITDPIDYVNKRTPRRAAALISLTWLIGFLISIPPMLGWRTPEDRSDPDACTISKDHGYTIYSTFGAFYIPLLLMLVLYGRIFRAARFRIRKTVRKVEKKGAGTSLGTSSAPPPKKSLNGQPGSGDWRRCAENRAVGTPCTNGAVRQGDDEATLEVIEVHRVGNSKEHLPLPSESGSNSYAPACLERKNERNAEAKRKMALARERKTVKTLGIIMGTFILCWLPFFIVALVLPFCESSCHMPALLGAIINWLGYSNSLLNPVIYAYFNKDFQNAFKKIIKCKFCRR
Structures can show the parent of a compound that is named as a salt.
measurement_kind: pKi
Here pKi is given on a logarithmic scale as minus log10 of the concentration in mol/L.

Please review the following examples before continuing.
{"molecule": "Cc1ncsc1CCN1CCC(N2CCc3ccccc32)CC1 [Example 61]", "pKi": 8.30}
{"molecule": "CNCc1ccc2c(c1)N(C1CCN(CCc3ccc(F)cc3)CC1)CC2 [Example 162]", "pKi": 9.01}
{"molecule": "O=C(Cc1ccc2ccn(C3CCN(CCc4ccc(F)cc4)CC3)c2c1)NCCc1ccccn1 [Example 315, Oxalate]", "pKi": 8.17}
{"molecule": "O=C(c1ccc2c(c1)N(C1CCN(CCc3ccc(F)cc3)CC1)CC2)c1nccs1 [Example 194]", "pKi": 8.34}
{"molecule": "OC1(c2ccc3c(c2)N(C2CCN(CCc4ccc(F)cc4)CC2)CC3)CCC1 [Example 140]", "pKi": 8.21}
{"molecule": "Fc1ccc(CCN2CCC(N3CCc4ccc(Cl)nc43)CC2)c(F)c1 [Example 262]", "pKi": 8.82}

// query Give pKi for the following molecule: NC(=O)Cc1ccc2c(c1)N(C1CCN(CCc3ccc(F)cc3)CC1)CC2 [Example 147]
// result 8.88

// query Look up pKi of N#CCNC(=O)Cc1ccc2ccn(C3CCN(CCc4ccc(F)cc4)CC3)c2c1 [Example 308, Oxalate] and report it.
// result 9.14

// query Note down pKi recorded for c1ccc2c(c1)CCN2C1CCN(CCc2ccncc2)CC1 [Example 49]
// result 7.26

// query Please give the documented pKi of Fc1ccc(CCN2CCC(N3CCc4ccc(Cn5ccnc5)cc43)CC2)cc1 [Example 211]
// result 9.28

// query Specify pKi for CC(=O)NCc1ccc2ccn(C3CCN(CCc4cccnc4)CC3)c2c1 [Example 386] and stop.
// result 8.27

====

Where a name gives a salt, the structure may show the parent alone.
measurement_kind: melting point

{"compound": "O=C(Cc1ccc2ccn(C3CCN(CCc4ccccc4F)CC3)c2c1)NCCO [Example 346]", "melting point": "127.7 to 128.6 °C"}
{"compound": "CC(=O)N(C)Cc1ccc2ccn(C3CCN(CCc4ccc(F)cc4)CC3)c2c1 (as salt: oxalate) [Example 359]", "melting point": "148 to 149 °C"}

// query Tell me measured melting point for CN(C)CC(=O)NCc1ccc2ccn(C3CCN(CCc4ccc(F)cc4)CC3)c2c1 (as salt: oxalate) [Example 375] please.
// result 112 to 113 °C

// query Look up melting point of CCCS(=O)(=O)NCc1ccc2ccn(C3CCN(CCc4ccc(F)cc4)CC3)c2c1 [Example 324] and report it.
// result 80 to 81 °C

// query Kindly indicate its recorded melting point. Item: O=C(CF)NCc1ccc2ccn(C3CCN(CCc4ccc(F)cc4)CC3)c2c1 [Example 366]
// result 106 to 108 °C

// query Return melting point for the following compound: CC(=O)NCc1ccc2ccn(C3CCN(CCc4ccc(F)cc4F)CC3)c2c1 (as salt: oxalate) [Example 357]
// result 103 to 106 °C

// query Fill in reported melting point for this entry: O=C(NCc1ccc2ccn(C3CCN(CCc4ccc(F)cc4)CC3)c2c1)C1CC1 [Example 363]
// result 116 to 117 °C

// query Consider the compound O=C(CF)NCc1ccc2ccn(C3CCN(CCc4ccccc4F)CC3)c2c1 (as salt: oxalate) [Example 381] . State its measured melting point.
// result 168 to 169 °C

====

- system_under_test: α1 adrenalin receptor
- experiment_description: Binding test on [3H] prazosin (α1 adrenalin receptor)
- Set-up: species or system rat
- condition_details: [3H] prazosin about 0.2 nM, receptor fraction of rat cerebral cortex
Form field: Ki (one value per entry).
The reply should be a number in nM, with the unit left off.

// query Note Ki for the compound shown: COc1ccc2c(c1)N(C1CCN(CCc3ccc(F)cc3)C1)CC2 (centres unmarked)
// result 178

// query Return reported Ki. Input compound: `O=C1NCCN1Cc1ccc2ccn(C3CCN(CCc4ccc(F)cc4)CC3)c2c1`
// result 39.5

// query Assign Ki to the following record: `CCNC(=O)Cc1ccc2c(c1)N(C1CCN(CCc3ccc(F)cc3)CC1)CC2`
// result 304

// query Hello, please tell me recorded Ki for this one: `CC(=O)N(C)Cc1ccc2ccn(C3CCN(CCc4ccc(F)cc4)CC3)c2c1`
// result 75.9
